The origin of these recorded values is patent US20250270315A1.

A collection of binders and their measured TOP blocking (%)
Target: T1, human SIRPα v1 ECD recombinant protein (tag not given) (human, UniProt P78324 31-373)
T1 construct: extracellular domain; also called biotin labeled soluble human SIRPα v1 ECD recombinant protein; ELISA microplate coated human SIRPα v1 ECD
T1 sequence (P78324 31-373): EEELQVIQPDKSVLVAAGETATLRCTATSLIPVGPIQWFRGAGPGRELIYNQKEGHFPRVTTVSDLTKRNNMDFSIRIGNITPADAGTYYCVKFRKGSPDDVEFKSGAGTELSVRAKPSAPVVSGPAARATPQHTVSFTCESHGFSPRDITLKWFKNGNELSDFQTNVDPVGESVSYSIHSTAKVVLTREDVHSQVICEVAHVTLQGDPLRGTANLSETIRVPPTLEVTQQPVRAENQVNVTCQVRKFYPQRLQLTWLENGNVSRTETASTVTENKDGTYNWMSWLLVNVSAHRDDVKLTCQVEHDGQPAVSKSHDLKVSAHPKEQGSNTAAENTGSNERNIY
Assay: competitive ELISA, mFc-CD47 ECD on coated SIRPα v1 ECD
Give the quantity in %, number only.

Need TOP blocking (%) of 071c (antibody, V domains shown, also called chimeric antibody 071c) VH: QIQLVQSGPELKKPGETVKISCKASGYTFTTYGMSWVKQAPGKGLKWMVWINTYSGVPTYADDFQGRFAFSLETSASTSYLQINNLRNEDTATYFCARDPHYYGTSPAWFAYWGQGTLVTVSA VL: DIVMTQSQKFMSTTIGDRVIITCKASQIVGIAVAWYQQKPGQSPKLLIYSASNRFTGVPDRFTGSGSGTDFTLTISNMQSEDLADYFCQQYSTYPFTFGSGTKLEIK , thanks. 94.1

Record: hu1H9G4 (antibody, V domains shown) VH: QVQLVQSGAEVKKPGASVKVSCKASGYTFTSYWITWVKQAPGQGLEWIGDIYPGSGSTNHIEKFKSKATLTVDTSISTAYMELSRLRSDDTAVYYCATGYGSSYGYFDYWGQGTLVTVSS VL: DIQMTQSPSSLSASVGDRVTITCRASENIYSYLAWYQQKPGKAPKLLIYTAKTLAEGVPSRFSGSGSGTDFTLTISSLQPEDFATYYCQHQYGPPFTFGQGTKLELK 97.5

Record: 073c (antibody, V domains shown, also called chimeric antibody 073c) VH: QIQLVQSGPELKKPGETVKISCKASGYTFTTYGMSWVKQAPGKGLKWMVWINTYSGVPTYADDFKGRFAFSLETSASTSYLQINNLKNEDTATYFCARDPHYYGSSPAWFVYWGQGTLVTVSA VL: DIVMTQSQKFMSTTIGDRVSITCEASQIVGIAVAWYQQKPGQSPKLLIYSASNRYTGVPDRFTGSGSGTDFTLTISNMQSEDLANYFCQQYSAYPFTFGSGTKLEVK 95.1

Record: 042c (antibody, V domains shown, also called chimeric antibody 042c) VH: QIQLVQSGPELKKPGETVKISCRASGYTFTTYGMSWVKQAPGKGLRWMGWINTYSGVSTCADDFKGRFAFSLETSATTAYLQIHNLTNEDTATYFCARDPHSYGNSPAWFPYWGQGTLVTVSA VL: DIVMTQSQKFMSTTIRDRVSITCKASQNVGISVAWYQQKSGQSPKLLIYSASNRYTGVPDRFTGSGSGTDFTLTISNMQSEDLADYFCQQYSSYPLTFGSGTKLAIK 97.1

Record: 025c (antibody, V domains shown, also called chimeric antibody 025c; parental antibody of 025c) VH: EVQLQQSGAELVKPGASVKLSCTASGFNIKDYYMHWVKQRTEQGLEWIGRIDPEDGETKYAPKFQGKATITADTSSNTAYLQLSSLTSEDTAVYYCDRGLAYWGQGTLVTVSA VL: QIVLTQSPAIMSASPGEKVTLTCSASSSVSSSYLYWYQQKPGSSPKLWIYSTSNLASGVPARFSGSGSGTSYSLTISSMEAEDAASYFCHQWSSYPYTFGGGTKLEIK 96.5

Record: 015c (antibody, V domains shown, also called chimeric antibody 015c) VH: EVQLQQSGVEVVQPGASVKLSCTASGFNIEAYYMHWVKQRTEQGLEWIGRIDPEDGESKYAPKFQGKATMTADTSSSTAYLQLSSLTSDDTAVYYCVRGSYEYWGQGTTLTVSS VL: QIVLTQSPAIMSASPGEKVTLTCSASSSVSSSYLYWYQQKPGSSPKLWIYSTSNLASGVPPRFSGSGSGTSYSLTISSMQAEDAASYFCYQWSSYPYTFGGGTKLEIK 96.4

Record: 059c (antibody, V domains shown, also called chimeric antibody 059c) VH: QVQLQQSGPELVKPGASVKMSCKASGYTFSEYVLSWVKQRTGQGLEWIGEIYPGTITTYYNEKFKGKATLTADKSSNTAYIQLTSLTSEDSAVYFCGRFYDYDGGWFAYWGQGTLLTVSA VL: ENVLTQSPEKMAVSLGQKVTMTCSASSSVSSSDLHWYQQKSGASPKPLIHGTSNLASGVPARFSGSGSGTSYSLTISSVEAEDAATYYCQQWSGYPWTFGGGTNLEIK 97
